These measurements were taken from paper PMC12691669.

// reported pIC50 per item
- TGT: Human c20S proteasome β1 subunit (Homo sapiens, UniProt P28072+Q99436)
- TEST DETAILS: In vitro proteasome assay, z-LLE-amc substrate
- ASSAY CONDITIONS: purified human c20S with PA28α, mean ± SD; read-out: Human c20S proteasome inhibition of β1 subunit (IC50)
Reminder that pIC50 means the negative base-10 logarithm of the concentration expressed in mol/L.

Here's what some known entries look like.
{"columns": ["MOLECULE", "TGT", "QUANTITATIVE READOUT"],
 "data": [
  ["COc1ccc(C[C@H](NC(=O)[C@H](C)NC(=O)C2=C(C)c3ccccc3C2)C(=O)N[C@@H](Cc2ccccc2)C(=O)[C@@]2(C)CO2)cc1 [compound 4]", "Human c20S proteasome β1 subunit (Homo sapiens, UniProt P28072+Q99436)", 4.70],
  ["CCCCCC(=O)N[C@H](C(=O)N[C@@H](CCS(C)(=O)=O)C(=O)N[C@@H](CC(C)C)C(=O)[C@@]1(C)CO1)C(C)C [38 (CPB), carmaphycin B, reference compound]", "Human c20S proteasome β1 subunit (Homo sapiens, UniProt P28072+Q99436)", 6.05]
]}

Now consider the entry below.
Incoming: // pIC50 lookup, key: C[C@@]12OC(=O)[C@]1([C@@H](O)[C@@H]1C=CCCC1)NC(=O)[C@@H]2CCCl [18 (MZB), marizomib, reference compound]
Outgoing: 7.18

----------
- TGT: T. vaginalis Tv20S proteasome β1 subunit (Trichomonas vaginalis)
- Sequence (A2E7Z2 entry or part of it): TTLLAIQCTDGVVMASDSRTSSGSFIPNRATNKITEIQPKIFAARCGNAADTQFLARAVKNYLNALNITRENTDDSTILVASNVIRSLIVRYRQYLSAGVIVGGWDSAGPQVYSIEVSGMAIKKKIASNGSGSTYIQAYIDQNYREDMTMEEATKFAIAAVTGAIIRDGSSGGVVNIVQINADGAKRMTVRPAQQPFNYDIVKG
- TEST DETAILS: In vitro proteasome assay, Ac-RYFD-amc substrate
- Format: biochemical
- ASSAY CONDITIONS: recombinant Tv20S, mean ± SD of three experiments
ENDPOINT: Tv20S proteasome inhibition of β1 subunit (IC50)

Here's what some known entries look like.
{"columns": ["COMPOUND", "RESULT"],
 "data": [
  ["CCCCC(=O)N[C@@H](Cc1ccc(O)cc1)C(=O)N[C@@H](CCCC)C(=O)N[C@@H](Cc1ccccc1)C(=O)[C@@]1(C)CO1", "Activation"],
  ["CCCCCC(=O)N[C@@H](CO)C(=O)N[C@@H](CCCC)C(=O)N[C@@H](Cc1ccccc1)C(=O)[C@@]1(C)CO1", "Activation"],
  ["CCCC[C@H](NC(=O)[C@H](CC(=O)N1CCCC1)NC(=O)[C@H](Cc1ccc(OC)cc1)N1CCCC1=O)C(=O)N[C@@H](Cc1ccc(F)cc1F)C(=O)[C@@]1(C)CO1", "Activation"],
  ["CCCCCC(=O)N[C@H](C(=O)N[C@@H](CCS(C)(=O)=O)C(=O)N[C@@H](CC(C)C)C(=O)[C@@]1(C)CO1)C(C)C [38 (CPB), carmaphycin B, reference compound]", "Activation"],
  ["COc1ccc(C[C@H](NC(=O)[C@H](C)NC(=O)C2=C(C)c3ccccc3C2)C(=O)N[C@@H](Cc2ccccc2)C(=O)[C@]2(C)CO2)cc1", "Activation"]
]}

Incoming: // Tv20S proteasome inhibition of β1 subunit (IC50) lookup, key: CCCCC(=O)N[C@H](Cc1c[nH]c2ccccc12)C(=O)N[C@@H](Cc1c[nH]c2ccccc12)C(=O)N[C@@H](Cc1ccccc1)C(=O)[C@]1(C)CO1
Outgoing: Activation

Incoming: // Tv20S proteasome inhibition of β1 subunit (IC50) lookup, key: COc1ccc(C[C@H](NC(=O)[C@H](C)NC(=O)C2=C(C)c3ccccc3C2)C(=O)N[C@@H](Cc2ccc(-c3ccccc3)cc2)C(=O)[C@@]2(C)CO2)cc1
Outgoing: Activation

Incoming: // Tv20S proteasome inhibition of β1 subunit (IC50) lookup, key: COc1ccc(CC(NC(=O)C(C)NC(=O)CN2CCOCC2)C(=O)NC(Cc2ccc(-c3ccccc3)cc2)C(=O)C2(C)CO2)cc1 (centres unmarked)
Outgoing: Activation

Incoming: // Tv20S proteasome inhibition of β1 subunit (IC50) lookup, key: CCCCCC(=O)NC(CC(=O)NC(CCCC)C(=O)NC(Cc1ccccc1)C(=O)C1(C)CO1)CC(=O)OC(C)(C)C (centres unmarked)
Outgoing: Activation

Incoming: // Tv20S proteasome inhibition of β1 subunit (IC50) lookup, key: CCCCCC(=O)N[C@H](CC(=O)N[C@@H](CCCC)C(=O)N[C@@H](Cc1ccc(F)cc1F)C(=O)[C@@]1(C)CO1)CC(=O)OC(C)(C)C
Outgoing: Activation

Incoming: // Tv20S proteasome inhibition of β1 subunit (IC50) lookup, key: COc1ccc(CC(NC(=O)C(C)NC(=O)OCc2ccccc2)C(=O)NC(Cc2ccccc2)C(=O)C2(C)CO2)cc1 (centres unmarked) [compound 12]
Outgoing: Activation

Incoming: // Tv20S proteasome inhibition of β1 subunit (IC50) lookup, key: COc1ccc(CC(NC(=O)C(C)NC(=O)OCc2ccccc2)C(=O)NC(Cc2ccccc2)C(=O)C2(C)CO2)cc1 (centres unmarked) [compound 11]
Outgoing: Activation

Incoming: // Tv20S proteasome inhibition of β1 subunit (IC50) lookup, key: CSc1ccc(CC(=O)NC(C(=O)NC(Cc2c(F)c(F)c(F)c(F)c2F)C(=O)N[C@@H](CC(C)C)C(=O)[C@@]2(C)CO2)C(C)C)cc1 (some centres unmarked)
Outgoing: Activation

Incoming: // Tv20S proteasome inhibition of β1 subunit (IC50) lookup, key: COc1ccc(C[C@H](NC(=O)[C@H](C)NC(=O)C2=C(C)c3ccccc3C2)C(=O)N[C@@H](Cc2ccccc2)C(=O)[C@@]2(C)CO2)cc1
Outgoing: Activation
